test: in vitro; conditions: rat, gh3-tre-luc cells, AC50 (uM) modified / 1000
MEASURE: CC50 at 24 h

# MOLECULE, MEASURE, RESULT
data = [
    ("CN(C)CCc1c[nH]c2cccc(OP(=O)(O)O)c12", "CC50 at 24 h", "> 90 µM"),
    ("Nc1nc2[nH]cc(CCc3ccc(C(=O)N[C@@H](CCC(=O)O)C(=O)O)cc3)c2c(=O)[nH]1 [Pemetrexed disodium]", "CC50 at 24 h", "> 50 µM"),
]

We now examine a further molecule.
Request: State the recorded CC50 at 24 h for this entry: OC(c1ccc(F)cc1)(c1cncnc1)c1ccccc1Cl (stereo not drawn)
Response: > 90 µM
